Test system: Vero E6 infected with SARS-CoV-2
Assay: inhibition of SARS-CoV-2 cytopathic effect; higher = more antiviral protection, active = above 15
Conditions: 833.33 nM; 48 h
Quick reference for inhibition of SARS-CoV-2 cytopathic effect among some compounds
Give a bare numeral; the unit % is implied.

Worked cases, inhibition of SARS-CoV-2 cytopathic effect given:
[
  {
    "COMPOUND": "CCOc1ccc(Cc2cc([C@]34OC[C@](CO)(O3)[C@@H](O)[C@H](O)[C@H]4O)ccc2Cl)cc1",
    "UNITS_SYMBOL": "%",
    "RECORDED_NUMBER": -0.17
  },
  {
    "COMPOUND": "C=CCN1C[C@H](C(=O)N(CCCN(C)C)C(=O)NCC)C[C@@H]2c3cccc4[nH]cc(c34)C[C@H]21",
    "UNITS_SYMBOL": "%",
    "RECORDED_NUMBER": -8.73
  },
  {
    "COMPOUND": "COc1cc2c(cc1OC)-c1c/c(=N\\c3c(C)cc(C)cc3C)n(C)c(=O)n1CC2",
    "UNITS_SYMBOL": "%",
    "RECORDED_NUMBER": 3.41
  },
  {
    "COMPOUND": "CC(=O)CC(=O)O [lithium-acetoacetate]",
    "UNITS_SYMBOL": "%",
    "RECORDED_NUMBER": 1.82
  },
  {
    "COMPOUND": "CC(C)(C)NC[C@H](O)COc1cccc2c1CCCC2=O",
    "UNITS_SYMBOL": "%",
    "RECORDED_NUMBER": 2.58
  },
  {
    "COMPOUND": "Clc1ccc2nsnc2c1NC1=NCCN1",
    "UNITS_SYMBOL": "%",
    "RECORDED_NUMBER": 2.93
  }
]

// query Quick one: give measured inhibition of SARS-CoV-2 cytopathic effect for C[C@H](Cc1ccc2c(c1)OC(C(=O)O)(C(=O)O)O2)NC[C@H](O)c1cccc(Cl)c1
// result -1.35

// query Return reported inhibition of SARS-CoV-2 cytopathic effect. Input compound: O=C(Nc1ccccc1F)N[C@H]1N=C(c2ccccc2)c2ccccc2NC1=O
// result -1.67

// query Quote inhibition of SARS-CoV-2 cytopathic effect reported for Oc1ccc([C@H]2COc3cc(O)ccc3C2)cc1 please.
// result 3.83

---

Tested on: Vero E6 infected with SARS-CoV-2
Test: inhibition of SARS-CoV-2 cytopathic effect; higher = more antiviral protection, active = above 15
Settings: 833.33 nM; 48 h
TEST_READOUT: inhibition of SARS-CoV-2 cytopathic effect (%)
Give the quantity in %, number only.

In the examples that follow, each entry is paired with its recorded inhibition of SARS-CoV-2 cytopathic effect.
[
  {
    "COMPOUND": "O=C(O)CCCc1c[nH]c2ccccc12 [3-indolebutyric-acid]",
    "STUDY_TARGET": "Vero E6 infected with SARS-CoV-2",
    "UNITS_SYMBOL": "%",
    "RECORDED_NUMBER": -3.61
  },
  {
    "COMPOUND": "COc1ccc2c(O[C@@H]3C[C@H]4C(=O)N[C@]5(C(=O)NS(=O)(=O)C6CC6)C[C@H]5/C=C\\CCCCN(C)C(=O)[C@@H]4C3)cc(-c3nc(C(C)C)cs3)nc2c1C [simeprevir]",
    "STUDY_TARGET": "Vero E6 infected with SARS-CoV-2",
    "UNITS_SYMBOL": "%",
    "RECORDED_NUMBER": -2.31
  },
  {
    "COMPOUND": "O=C(Nc1cc(Cl)cc(Cl)c1O)c1c(O)c(Cl)cc(Cl)c1Cl [oxyclozanide]",
    "STUDY_TARGET": "Vero E6 infected with SARS-CoV-2",
    "UNITS_SYMBOL": "%",
    "RECORDED_NUMBER": -1.33
  },
  {
    "COMPOUND": "CC(C)(O)C(Cl)(Cl)Cl [chlorobutanol]",
    "STUDY_TARGET": "Vero E6 infected with SARS-CoV-2",
    "UNITS_SYMBOL": "%",
    "RECORDED_NUMBER": 1.86
  }
]

// query Note down inhibition of SARS-CoV-2 cytopathic effect recorded for C/C=C/C[C@@H](C)C(=O)[C@H]1C(=O)N[C@@H](C(C)C)C(=O)N(C)CC(=O)N(C)[C@@H](CC(C)C)C(=O)N[C@@H](C(C)C)C(=O)N(C)[C@@H](CC(C)C)C(=O)N[C@@H](C)C(=O)N[C@H](C)C(=O)N(C)[C@@H](CC(C)C)C(=O)N(C)[C@@H](CC(C)C)C(=O)N(C)[C@@H](C(C)C)C(=O)N1C [valspodar]
// result 0.22

// query Annotate the compound CCCOc1ccc2[nH]cc(C3=CCNCC3)c2n1 with its measured inhibition of SARS-CoV-2 cytopathic effect.
// result 2.78

// query Note inhibition of SARS-CoV-2 cytopathic effect for the compound shown: NC(=O)N1CCC(CC(=O)N2CCC([C@H]3c4ncc(Br)cc4CCc4cc(Cl)cc(Br)c43)CC2)CC1 [lonafarnib]
// result 11.2
